molecular target: T1, mouse MET ECD (mouse, UniProt P16056 25-931); experiment: ELISA, MET ECD coated, mAb 0-20 nM
T1 construct: range 1-931; recombinant; range as printed includes the signal peptide; also called mMET; mMET ECD
T1 sequence (P16056 25-931 limits assumed, form in doubt): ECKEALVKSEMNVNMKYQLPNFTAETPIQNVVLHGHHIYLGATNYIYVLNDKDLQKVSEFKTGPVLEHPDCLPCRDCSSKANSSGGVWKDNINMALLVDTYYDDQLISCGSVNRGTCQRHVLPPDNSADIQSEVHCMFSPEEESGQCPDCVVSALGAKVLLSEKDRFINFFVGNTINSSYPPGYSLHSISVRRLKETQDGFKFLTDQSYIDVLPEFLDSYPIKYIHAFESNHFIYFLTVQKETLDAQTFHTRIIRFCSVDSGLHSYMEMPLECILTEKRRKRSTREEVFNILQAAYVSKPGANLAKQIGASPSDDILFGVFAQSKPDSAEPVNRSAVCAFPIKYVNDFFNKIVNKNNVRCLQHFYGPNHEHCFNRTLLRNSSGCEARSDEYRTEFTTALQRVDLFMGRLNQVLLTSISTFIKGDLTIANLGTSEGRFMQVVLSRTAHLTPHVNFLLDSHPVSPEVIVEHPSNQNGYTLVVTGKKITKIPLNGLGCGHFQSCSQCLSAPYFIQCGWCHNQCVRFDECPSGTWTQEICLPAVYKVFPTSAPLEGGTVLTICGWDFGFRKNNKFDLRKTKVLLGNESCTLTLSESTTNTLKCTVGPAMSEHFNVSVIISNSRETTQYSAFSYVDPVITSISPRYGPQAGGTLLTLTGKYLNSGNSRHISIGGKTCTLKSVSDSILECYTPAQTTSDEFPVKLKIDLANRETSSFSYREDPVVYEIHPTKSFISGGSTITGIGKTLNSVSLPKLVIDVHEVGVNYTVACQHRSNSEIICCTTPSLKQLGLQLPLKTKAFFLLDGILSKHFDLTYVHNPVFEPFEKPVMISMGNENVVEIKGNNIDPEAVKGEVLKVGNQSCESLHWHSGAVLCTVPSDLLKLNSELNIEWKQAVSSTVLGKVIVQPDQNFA
quantity_kind: EMAX (OD450 AU)
Answer format: numeric, OD450 AU implied, no suffix.

binder	unit_tag	EMAX
71G3 chimeric llama-human IgG1 mAb (antibody, V domains shown, human IgG1 CH1-CH2-CH3 and human CL lambda; also called 71G3 Human IgG1/lambda) VH: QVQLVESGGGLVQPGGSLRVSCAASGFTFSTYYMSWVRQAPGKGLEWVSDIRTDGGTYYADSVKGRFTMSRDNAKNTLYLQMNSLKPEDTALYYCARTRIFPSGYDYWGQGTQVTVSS VL: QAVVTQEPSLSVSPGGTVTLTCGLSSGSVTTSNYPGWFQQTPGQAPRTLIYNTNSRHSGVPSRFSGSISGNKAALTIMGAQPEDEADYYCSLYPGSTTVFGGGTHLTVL	OD450 AU	2.98
76G7 chimeric llama-human IgG1 mAb (antibody, V domains shown, human IgG1 CH1-CH2-CH3 and human CL lambda) VH: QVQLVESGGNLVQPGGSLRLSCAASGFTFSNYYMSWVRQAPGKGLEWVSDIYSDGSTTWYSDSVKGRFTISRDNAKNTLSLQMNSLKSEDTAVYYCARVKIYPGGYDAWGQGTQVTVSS VL: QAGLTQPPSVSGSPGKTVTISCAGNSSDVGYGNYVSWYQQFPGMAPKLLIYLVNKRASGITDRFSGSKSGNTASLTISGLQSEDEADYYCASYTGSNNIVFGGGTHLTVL	OD450 AU	2.78
71D6 chimeric llama-human IgG1 mAb (antibody, V domains shown, human IgG1 CH1-CH2-CH3 and human CL lambda; also called 71D6 Human IgG1/lambda) VH: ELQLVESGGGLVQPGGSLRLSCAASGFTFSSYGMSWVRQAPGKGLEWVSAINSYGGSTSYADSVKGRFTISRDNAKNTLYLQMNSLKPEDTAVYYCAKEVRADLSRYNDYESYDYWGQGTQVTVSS VL: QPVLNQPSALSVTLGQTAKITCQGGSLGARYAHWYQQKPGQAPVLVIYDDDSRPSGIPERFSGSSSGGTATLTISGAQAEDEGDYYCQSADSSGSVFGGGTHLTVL	OD450 AU	2.01
71G12 chimeric llama-human IgG1 mAb (antibody, V domains shown, human IgG1 CH1-CH2-CH3 and human CL kappa) VH: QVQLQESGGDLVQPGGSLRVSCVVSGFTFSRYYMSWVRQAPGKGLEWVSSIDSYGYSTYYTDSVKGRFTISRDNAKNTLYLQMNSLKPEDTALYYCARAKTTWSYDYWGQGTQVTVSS VL: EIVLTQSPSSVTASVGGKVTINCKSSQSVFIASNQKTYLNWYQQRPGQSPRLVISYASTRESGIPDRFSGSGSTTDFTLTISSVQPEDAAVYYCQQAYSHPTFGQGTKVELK	OD450 AU	2.97
71G2 chimeric llama-human IgG1 mAb (antibody, V domains shown, human IgG1 CH1-CH2-CH3 and human CL lambda; also called 71G2 Human IgG1/lambda) VH: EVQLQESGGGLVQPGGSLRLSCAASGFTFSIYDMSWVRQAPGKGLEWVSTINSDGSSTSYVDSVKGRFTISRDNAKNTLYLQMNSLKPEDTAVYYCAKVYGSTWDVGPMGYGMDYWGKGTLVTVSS VL: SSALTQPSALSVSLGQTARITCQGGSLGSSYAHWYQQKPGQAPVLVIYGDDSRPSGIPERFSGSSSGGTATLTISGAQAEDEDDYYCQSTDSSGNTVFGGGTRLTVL	OD450 AU	3.17

Consider the binder 74C8 chimeric llama-human IgG1 mAb (antibody, V domains shown, human IgG1 CH1-CH2-CH3 and human CL lambda) VH: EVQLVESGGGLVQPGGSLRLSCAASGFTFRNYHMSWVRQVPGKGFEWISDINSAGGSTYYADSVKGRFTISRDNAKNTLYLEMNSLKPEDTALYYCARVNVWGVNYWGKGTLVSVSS VL: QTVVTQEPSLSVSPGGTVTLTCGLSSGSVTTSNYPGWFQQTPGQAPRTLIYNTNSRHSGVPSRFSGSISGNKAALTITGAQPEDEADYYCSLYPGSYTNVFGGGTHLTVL . State its measured EMAX.
0.896

Query EMAX for 71C3 chimeric llama-human IgG1 mAb (antibody, V domains shown, human IgG1 CH1-CH2-CH3 and human CL lambda) VH: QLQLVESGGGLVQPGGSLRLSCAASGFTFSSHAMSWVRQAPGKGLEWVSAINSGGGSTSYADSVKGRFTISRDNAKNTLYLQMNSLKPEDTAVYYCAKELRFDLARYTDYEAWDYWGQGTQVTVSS VL: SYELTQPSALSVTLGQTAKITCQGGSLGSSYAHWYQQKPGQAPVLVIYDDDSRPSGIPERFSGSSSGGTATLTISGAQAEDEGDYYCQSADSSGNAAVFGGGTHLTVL
2.24

For the binder 76H10 chimeric llama-human IgG1 mAb (antibody, V domains shown, human IgG1 CH1-CH2-CH3 and human CL lambda) VH: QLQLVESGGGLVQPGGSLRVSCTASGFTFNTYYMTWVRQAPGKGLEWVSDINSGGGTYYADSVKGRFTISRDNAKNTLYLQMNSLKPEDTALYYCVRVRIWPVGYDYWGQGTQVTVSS VL: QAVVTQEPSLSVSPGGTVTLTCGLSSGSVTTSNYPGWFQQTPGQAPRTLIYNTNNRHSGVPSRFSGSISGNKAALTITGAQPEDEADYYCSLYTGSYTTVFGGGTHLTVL , give its reported EMAX.
2.66

Answer with the recorded EMAX for the binder listed here: 72F8 chimeric llama-human IgG1 mAb (antibody, V domains shown, human IgG1 CH1-CH2-CH3 and human CL lambda) VH: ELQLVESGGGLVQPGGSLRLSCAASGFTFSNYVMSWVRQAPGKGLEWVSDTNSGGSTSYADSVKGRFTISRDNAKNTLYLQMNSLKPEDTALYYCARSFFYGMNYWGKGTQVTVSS VL: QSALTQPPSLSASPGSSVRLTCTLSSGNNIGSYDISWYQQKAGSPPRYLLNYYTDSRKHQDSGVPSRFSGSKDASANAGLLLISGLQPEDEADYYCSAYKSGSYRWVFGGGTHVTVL
2.9

Supply reported EMAX belonging to this binder: 71D4 chimeric llama-human IgG1 mAb (antibody, V domains shown, human IgG1 CH1-CH2-CH3 and human CL lambda) VH: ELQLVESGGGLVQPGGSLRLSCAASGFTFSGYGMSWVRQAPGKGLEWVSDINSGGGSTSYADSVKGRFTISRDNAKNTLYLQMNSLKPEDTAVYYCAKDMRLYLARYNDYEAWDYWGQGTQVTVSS VL: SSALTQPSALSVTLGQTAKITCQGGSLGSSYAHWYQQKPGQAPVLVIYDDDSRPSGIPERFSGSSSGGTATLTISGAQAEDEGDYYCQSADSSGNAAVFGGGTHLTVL
1.17

Give recorded EMAX. 71A3 chimeric llama-human IgG1 mAb (antibody, V domains shown, human IgG1 CH1-CH2-CH3 and human CL lambda) VH: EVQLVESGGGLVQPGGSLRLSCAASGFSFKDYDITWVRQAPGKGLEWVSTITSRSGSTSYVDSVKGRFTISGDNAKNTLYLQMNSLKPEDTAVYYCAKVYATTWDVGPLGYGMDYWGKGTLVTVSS VL: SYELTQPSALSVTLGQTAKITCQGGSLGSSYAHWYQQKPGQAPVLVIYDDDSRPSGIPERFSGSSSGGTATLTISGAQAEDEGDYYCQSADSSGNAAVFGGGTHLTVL
2.73

Data provenance is patent US20200407452A1.
